# Measured on: human GPR91 receptor (Homo sapiens, UniProt Q9BXA5)
# Construct: expressed in transfected cells; host or cells: CHO-K1 NFAT cells
# Sequence (Q9BXA5 whole entry): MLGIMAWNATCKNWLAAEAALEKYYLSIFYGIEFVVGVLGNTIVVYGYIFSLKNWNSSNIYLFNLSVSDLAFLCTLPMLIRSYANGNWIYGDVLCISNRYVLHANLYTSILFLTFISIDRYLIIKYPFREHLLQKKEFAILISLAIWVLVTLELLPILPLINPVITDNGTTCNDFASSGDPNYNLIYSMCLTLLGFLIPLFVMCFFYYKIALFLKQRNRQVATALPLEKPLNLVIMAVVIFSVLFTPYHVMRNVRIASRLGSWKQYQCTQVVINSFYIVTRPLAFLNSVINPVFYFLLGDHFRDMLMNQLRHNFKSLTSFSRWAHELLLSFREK
# Assay info: Human GPR91 calcium mobilization assay
# Format: cell-based
# Settings: CHO-K1 NFAT cells over expressing human GPR91 receptor; Fluo4 AM; agonist sodium succinate; flex station; read-out: hGPR91 IC50 (μM)*
Endpoint: IC50

Consider the worked cases shown below.
INSERT INTO assay_data (structure_string, measured_on, test_value) VALUES
  ('Cn1cc2c(Oc3ccc(Oc4cccc(CC(=O)O)c4)c(C(F)(F)F)c3)cccc2n1', 'human GPR91 receptor (Homo sapiens, UniProt Q9BXA5)', '< 5 µM'),
  ('O=C(O)Cc1cccc(Oc2ccc(Oc3cccc4cnncc34)cc2C(F)(F)F)c1', 'human GPR91 receptor (Homo sapiens, UniProt Q9BXA5)', '< 5 µM'),
  ('O=C(O)Cc1cccc(Oc2ccc(Oc3ccc4c(cnn4C4COC4)c3)cc2C(F)(F)F)c1', 'human GPR91 receptor (Homo sapiens, UniProt Q9BXA5)', '> 10 µM');

// switching to the query compound
The value of IC50 measured for the compound `O=C(O)CCc1ccc(Oc2ccc(Oc3cccc4ccncc34)cc2C(F)(F)F)cc1` turned out to be < 5 µM
